Provenance of the data: a melting point compilation (Tetko et al.; mined from patent text by program, amines drawn as free bases though some values may be those of a salt)

PARAMETER: melting point

Please indicate melting point recorded for O=C(CCC(=O)N1CCC(c2ccc(Cl)cc2)CC1)c1ccc2c(c1)CCN(CC1CCCCC1)CC2
140 to 141 °C

Please indicate melting point recorded for O=C(NNc1ccc(NC(=S)Nc2ccc(NNC(=O)c3ccccc3)cc2)cc1)c1ccccc1
185 to 187 °C

Please indicate melting point recorded for CC(C)OC(=O)N1c2cncnc2NC(=O)C1C (racemic)
160 to 162 °C

Please indicate melting point recorded for O=C(Cc1ccc(OCc2cccc(C(=O)O)c2)cc1)NC1(C(=O)O)Cc2ccc(-c3ccc(Cl)cc3)cc2C1 (stereo not given)
220 to 222 °C

Please indicate melting point recorded for C=C1CCCCCCCSC[C@@H](C(=O)OCC)NC1=O
146 to 147 °C

----------
PARAMETER: melting point

Please indicate melting point recorded for O=c1[nH]c2ccc(C3=NOC(CCN4CCC(Cc5ccc(F)cc5)CC4)C3)cc2o1 (configuration not stated)
254 to 258 °C

Please indicate melting point recorded for CCOC(=O)c1cnc(N(Cc2cc(Br)ccc2OCc2ccccc2)C(=O)OC(C)(C)C)cn1
116 to 117 °C

Please indicate melting point recorded for O=C(CCc1ccccc1)Nc1ccc(C(=O)O)c(O)c1
165 to 167 °C

Please indicate melting point recorded for CN(CCCNc1ncc(Cc2ccccc2)c(=O)[nH]1)c1ccccn1
75 to 85 °C

Please indicate melting point recorded for CCOc1nn(-c2ccc(C(F)(F)F)cn2)cc1CCCOc1cc(OC)ccc1CCC(=O)O
115 to 116 °C

Please indicate melting point recorded for CC(Br)c1ccc2occ(C#N)c(=O)c2c1 (configuration not stated)
162 to 164 °C

Please indicate melting point recorded for Nc1nc(NC2CC2)c2ncn([C@@H]3C[C@H](CO)[C@@H](O)C3)c2n1
174 to 176 °C

Please indicate melting point recorded for CCOC(=O)CN(C)CC=CC(=O)Nc1ccc2ncnc(Nc3cccc(Br)c3)c2c1
182 to 183 °C

Please indicate melting point recorded for CCOC(=O)C1=C(C)NC(C)=C(C(=O)OCCN2CCN(C(c3ccccc3)c3ccccc3)CC2)C1c1ccccc1Cl (configuration not stated)
76 to 78 °C

Please indicate melting point recorded for CCOC(=O)C1(C)C(=O)Nc2cc(N)ccc21 (configuration not stated)
248 °C

Please indicate melting point recorded for CC(C(=O)OCN1C(=O)CCC(N2C(=O)c3ccccc3C2=O)C1=O)N(C)C(=O)OC(C)(C)C (configuration not stated)
123 to 125 °C

Please indicate melting point recorded for O=c1c(Cc2ccccc2)c(-c2ccccc2)oc2cc(OCC3CO3)ccc12 (configuration not stated)
133 to 138 °C

Please indicate melting point recorded for CC(=O)NCc1ccc(CN2CCN(c3ccccc3)CC2)cc1[N+](=O)[O-]
135 to 136 °C

Please indicate melting point recorded for CCc1cc2c(s1)-n1c(C3CCCCC3)nnc1C(NC(=O)Nc1ccc(OC)cc1)N=C2c1ccccc1Cl (configuration not stated)
268 to 269 °C

Please indicate melting point recorded for COC(=O)c1cc(C(=O)c2c(C)c(NC(=O)c3cccc(OCCOS(C)(=O)=O)c3)c3ccccn23)ccc1N
171 °C

Please indicate melting point recorded for CN1c2ccc(-c3cccc4ccccc34)cc2S(=O)(=O)c2cc(-c3cccc4ccccc34)ccc21
221 to 225 °C

Please indicate melting point recorded for O=C(NCc1ccccn1)Nc1cc(N2C(=O)COc3ccccc32)ccn1
206 to 207 °C

Please indicate melting point recorded for O=C1NCc2cccnc2N1c1ccccc1
269 to 271 °C

Please indicate melting point recorded for CC(C)(C)NC(=O)c1cc(Cl)ccc1N
126 to 127 °C

Please indicate melting point recorded for COc1nc(C)cc2nc(S(=O)(=O)Nc3nn(C)c4ccccc34)nn12
181 to 183 °C

Please indicate melting point recorded for COC(=O)C1(OC)CC(C)C(=O)C=C1O (configuration not stated)
117 to 118 °C

Please indicate melting point recorded for COc1c(Cl)ccnc1CSc1nc2cc(OC(F)F)ccc2[nH]1
94 to 99 °C

Please indicate melting point recorded for CCN(CC)CCCN1CCN(c2cc(-c3ccnc(NCc4cccc(OC)c4)n3)cc3ccc(OC)cc23)CC1
156 to 160 °C

Please indicate melting point recorded for Nc1ccccc1C(=O)Nc1cccc2cc(Br)cnc12
147 to 150 °C

Please indicate melting point recorded for O=[N+]([O-])c1ccccc1N1CCN(CC(O)COc2cccc3c2CCCC3)CC1 (configuration not stated)
186 to 187 °C

Please indicate melting point recorded for O=C1OC2(CCC2)C(O)=C1c1ccccc1
188 to 189 °C

Please indicate melting point recorded for COc1cc2c(cc1OC)CN(CC(O)CN1CCC(c3noc4cc(F)ccc34)CC1)CC2 (configuration not stated)
153 to 154 °C

Please indicate melting point recorded for CSc1ccc(-c2nn(CC=Cc3ccccc3)c(=O)cc2-c2ccc(Cl)cc2)cc1
109 to 110 °C

Please indicate melting point recorded for CCC(=O)OCc1ccc(-c2[nH]c(-c3cccc4ccccc34)nc2C(=O)Nc2nccs2)cc1
281 to 283 °C

Please indicate melting point recorded for NC1CCCCC1C(O)c1ccccc1 (configuration not stated)
77 to 85 °C

Please indicate melting point recorded for CCCCCC1CCC(C2CCC(CC(O)CC)CC2)CC1 (configuration not stated)
131 °C

Please indicate melting point recorded for CC(C)CCN1C(=O)C(NC(=O)Nc2ccccc2)C(=O)N(CC23CC4CC(CC(C4)C2)C3)c2ccccc21 (configuration not stated)
156 to 157 °C

Please indicate melting point recorded for COC(=O)c1ccc(OCCNC(=O)C2Cc3ccccc3N2S(=O)(=O)c2ccc(-c3cccc(C(F)(F)F)c3)cc2)cc1F (configuration not stated)
63 to 70 °C

Please indicate melting point recorded for CCOC(=O)c1cc(CC)sc1Nc1ccccc1[N+](=O)[O-]
66 to 68 °C

Please indicate melting point recorded for O=C(NCCC1CCCCC1)c1cc(-c2ncc(Cl)cc2C(=O)O)ccc1Cl
208 to 211 °C

Please indicate melting point recorded for CCOc1ccc(-c2ccc(C#CC3(O)CN4CCC3CC4)cc2)cc1 (configuration not stated)
255 to 256 °C

Please indicate melting point recorded for CC(=O)N1CCC(C(=O)N2CC[C@@H](N(C)C(=O)c3ccc(C4CC4)cc3)[C@H](c3ccc(Cl)c(Cl)c3)C2)CC1
129 to 133 °C
